Tested on: primary human T-cells
Assay: Proliferation assay after 5 days (CellTiter-Glo, CD3 stimulation; PBS counter screen)
Assay type: cell-based
Conditions: Homo sapiens, T-cell, 120 h, CD3 stimulation, 5 days; normalized to reference compound A1 as stimulator control = 100%, DMSO neutral control; read-out: Emax proliferation (% activation)
Counter-ions that a name gives are not always drawn.
Below, each entry is listed with its recorded Emax.
Give your result in % as a bare value.

# example entries with known answers
CC(C)Oc1ccc(CN2C(=O)[C@@H](N)CS(=O)(=O)c3cc(F)c(-c4noc(C5CN(C)CC(F)(F)C5)n4)cc32)cc1 (stereo partly drawn)    152
CC(C)(C)c1nnc(-c2cc3c(cc2F)S(=O)(=O)C[C@H](N)C(=O)N3Cc2ccc(C(C)(C)C#N)cc2)o1    102
COC(=O)N1CC2CC(c3nc(-c4cc5c(cc4F)S(=O)(=O)C[C@H](N)C(=O)N5Cc4ccc(OC(F)(F)F)cc4)no3)(C2)C1    161
CC(C)(C)c1nnc(-c2cc3c(cc2F)S(=O)(=O)C[C@H](N)C(=O)N3Cc2ccc(OC(F)(F)F)cc2)o1    231
N[C@H]1CS(=O)(=O)c2cc(F)c(-c3nc(Cc4ccc(Cl)cc4)no3)cc2N(Cc2ccc(Cl)cc2)C1=O    122

Challenge: State the recorded Emax for this entry: N[C@H]1CS(=O)(=O)c2cc(F)c(-c3nnc(N4CCC5(CC4)CC(F)(F)CN5)o3)cc2N(Cc2ccc(Cl)cc2)C1=O [Example 475, hydrochloride]
Response given: 85

---

Tested on: primary human T-cells
measurement kind: pEC50
Please express pEC50 as -log10 of the molar concentration.

CC(C)(C)c1nnc(-c2cc3c(cc2N)S(=O)(=O)C[C@H](N)C(=O)N3Cc2ccc(Cl)cc2)o1 [Example 275]    5.04
CC(C)(C)c1nnc(-c2cc3c(cc2F)[S+]([O-])C[C@H](N)C(=O)N3Cc2ccc(OC(F)(F)F)cc2)o1 (single isomer, unassigned; epimer a) [Example 452]    6.92
CN1CC[C@H](n2nnc(-c3cc4c(cc3F)S(=O)(=O)C[C@H](N)C(=O)N4Cc3ccc(Cl)cc3)n2)C1 [Example 9]    5.88
CCC(=O)N[C@H]1CS(=O)(=O)c2cc(F)c(-c3nnc(C(C)(C)C)o3)cc2N(Cc2ccc(Cl)cc2)C1=O [Example 259]    5.68

Challenge: Item: CNC(=O)N1CCC(C)(c2nc(-c3cc4c(cc3F)S(=O)(=O)C[C@H](N)C(=O)N4Cc3ccc(Cl)cc3)no2)CC1 [Example 304] Test system: primary human T-cells Read-out: pEC50 Value: ?
Response given: 5.09

Challenge: Item: Cc1ccccc1-c1nnc(-c2cc3c(cc2F)S(=O)(=O)C[C@H](N)C(=O)N3Cc2ccc(Cl)cc2)o1 [Example 98] Test system: primary human T-cells Read-out: pEC50 Value: ?
Response given: 7.15

Challenge: Item: N[C@H]1CS(=O)(=O)c2cc(F)c(-c3noc(C4(CO)CCCO4)n3)cc2N(Cc2ccc(OC(F)(F)F)cc2)C1=O (some centres unmarked) [Example 332] Test system: primary human T-cells Read-out: pEC50 Value: ?
Response given: 6.13

Challenge: Item: CC(C)(CO)c1nc(-c2cc3c(cc2F)S(=O)(=O)C[C@H](N)C(=O)N3Cc2ccc(Cl)cc2)no1 [Example 303] Test system: primary human T-cells Read-out: pEC50 Value: ?
Response given: 5.97

Challenge: Item: N[C@H]1CS(=O)(=O)c2cc(F)c(-c3nnc(C4CCCC4(F)F)o3)cc2N(Cc2ccc(Cl)cc2)C1=O (some centres unmarked) [Example 76] Test system: primary human T-cells Read-out: pEC50 Value: ?
Response given: 6.13

Challenge: Item: CC(C)(C)c1nnc(-c2cc3c(cc2Cl)S(=O)(=O)C[C@H](N)C(=O)N3Cc2ccc(Cl)cc2)o1 [Example 523] Test system: primary human T-cells Read-out: pEC50 Value: ?
Response given: 5.28

Challenge: Item: CCc1nnn(-c2cc3c(cc2F)S(=O)(=O)C[C@H](N)C(=O)N3Cc2ccc(Cl)cc2)n1 [Example 509] Test system: primary human T-cells Read-out: pEC50 Value: ?
Response given: 6.54

---

Test system: primary human T-cells
Assay: Proliferation assay after 5 days (CellTiter-Glo, CD3 stimulation; PBS counter screen)
Format: cell-based
Conditions: Homo sapiens, T-cell, 120 h, primary human T-cells, CD3 stimulation, CellTiter-Glo after 5 days; EC50 of fitted sigmoidal curve; read-out: Tcell Proliferation CD3 EC50
// classify: if (EC50 < 0.4 µM) 1 else -1

Here's what some known entries look like.
CCn1ccc(-c2cc3c(cc2F)S(=O)(=O)C[C@H](N)C(=O)N3Cc2ccc(Cl)cc2)n1    -1
N[C@H]1CS(=O)(=O)c2cc(F)c(-c3nnc(N4CC5(CCCO5)C4)o3)cc2N(Cc2ccc(Cl)cc2)C1=O    1
N[C@H]1CS(=O)(=O)c2cc(F)c(-c3nnc(NC4CCCC(F)(F)C4)o3)cc2N(Cc2ccc(Cl)cc2)C1=O (some centres unmarked)    -1
CS(=O)(=O)N1CCC(n2nnc(-c3cc4c(cc3F)S(=O)(=O)C[C@H](N)C(=O)N4Cc3ccc(Cl)cc3)n2)CC1    1

Challenge: Dear colleague, could you confirm whether EC50 of CN(C)C(=O)c1nc(-c2cc3c(cc2F)S(=O)(=O)C[C@H](N)C(=O)N3Cc2ccc(OC(F)(F)C(F)F)cc2)no1 falls below 0.4 µM? Thanks.
Response given: -1

Challenge: Dear colleague, could you confirm whether EC50 of CN(c1nnc(-c2ccc3c(c2)N(Cc2ccc(Cl)cc2)C(=O)[C@@H](N)CS3(=O)=O)o1)C1CC1 falls below 0.4 µM? Thanks.
Response given: -1

---

Tested on: primary human T-cells
Assay: Proliferation assay after 5 days (CellTiter-Glo, CD3 stimulation; PBS counter screen)
Type: cell-based
Settings: Homo sapiens, T-cell, 120 h, primary human T-cells, CD3 stimulation, CellTiter-Glo after 5 days; EC50 of fitted sigmoidal curve; read-out: Tcell Proliferation CD3 EC50
measurement kind: log10 EC50 (log10 of the value in nM)
Units before log transform: nM; reported quantity: EC50; transform: log10.

CC(N)(c1nc(-c2cc3c(cc2F)S(=O)(=O)C[C@H](N)C(=O)N3Cc2ccc(Cl)cc2)no1)C(F)(F)F (stereo partly shown)    2.34
CC(C)(C)c1nnc(-c2cc3c(cc2F)S(=O)(=O)C[C@H](N)C(=O)N3Cc2ccc(OCC(N)=O)cc2)o1    3.51
COC(=O)N1CC2CC(c3nc(-c4cc5c(cc4F)[S+]([O-])C[C@H](N)C(=O)N5Cc4ccc(OC(F)(F)C(F)F)cc4)no3)(C2)C1 (stereo partly shown)    3.82
CC(C)(C)n1cnc(-c2cc3c(cc2F)S(=O)(=O)C[C@H](N)C(=O)N3Cc2ccc(Cl)cc2)n1    2.53

Challenge: State the recorded log10 EC50 for this entry: N[C@H]1CS(=O)(=O)c2cc(F)c(-c3nnc(C4CCCCC4(F)F)o3)cc2N(Cc2ccc(Cl)cc2)C1=O (stereo partly shown)
Response given: 1.69

Challenge: State the recorded log10 EC50 for this entry: COCC1(Nc2nnc(-c3ccc4c(c3)N(Cc3ccc(Cl)cc3)C(=O)[C@@H](N)CS4(=O)=O)o2)CC(F)(F)C1
Response given: 3.06

Challenge: State the recorded log10 EC50 for this entry: CCc1nnc(-c2cc3c(cc2F)S(=O)(=O)C[C@H](N)C(=O)N3Cc2ccc(Cl)cc2)o1
Response given: 3.06

Challenge: State the recorded log10 EC50 for this entry: CC(C)(C)c1nnc(-c2cc3c(cc2F)[S+]([O-])C[C@H](N)C(=O)N3Cc2ccc(OC(F)(F)F)cc2)o1 (single isomer, unassigned; epimer a)
Response given: 2.67

Challenge: State the recorded log10 EC50 for this entry: CC(=O)N[C@H]1CS(=O)(=O)c2cc(F)c(-c3nnc(C(C)(C)C)o3)cc2N(Cc2ccc(Cl)cc2)C1=O
Response given: 2.77

Challenge: State the recorded log10 EC50 for this entry: CN(C)Cc1nc(-c2cc3c(cc2F)S(=O)(=O)C[C@H](N)C(=O)N3Cc2ccc(Cl)cc2)no1
Response given: 2.94

Challenge: State the recorded log10 EC50 for this entry: CC(C)(CNC1COC1)c1nnc(-c2cc3c(cc2F)S(=O)(=O)C[C@H](N)C(=O)N3Cc2ccc(Cl)cc2)o1
Response given: 3.91

Challenge: State the recorded log10 EC50 for this entry: COC(=O)N1CCC(C#N)(c2nnc(-c3ccc4c(c3)N(Cc3ccc(Cl)cc3)C(=O)[C@@H](N)CS4(=O)=O)o2)CC1
Response given: 3.30

---

System: primary human T-cells
// classify: if (EC50 < 3000 nM) Y else N

Here's what some known entries look like.
CC(C)(C)c1nnc(-c2cc3c(cc2F)S(=O)(=O)C[C@H](N)C(=O)N3Cc2cncc(Cc3ccc(Cl)cc3)c2)o1    Y
N[C@H]1CS(=O)(=O)c2cc(F)c(-c3nnc(-c4ccc(F)cn4)o3)cc2N(Cc2ccc(Cl)cc2)C1=O    Y
CC1(C#N)CCN(c2nnc(-c3cc4c(cc3F)S(=O)(=O)C[C@H](N)C(=O)N4Cc3ccc(Cl)cc3)o2)CC1    N
CC(C)(C)c1cc(-c2cc3c(cc2F)S(=O)(=O)C[C@H](N)C(=O)N3Cc2ccc(Cl)cc2)on1    Y
CC(C)(C)c1nnc(-c2cc3c(cc2F)S(=O)(=O)C[C@H](N)C(=O)N3Cc2ccc(OCCO)cc2)o1    N

Consider the record given below.
Challenge: Dear colleague, could you confirm whether EC50 of CC(C)(C)c1cn(-c2cc3c(cc2F)S(=O)(=O)C[C@H](N)C(=O)N3Cc2ccc(Cl)cc2)cn1 falls below 3000 nM? Thanks.
Response given: Y

Where do the numbers come from? From patent US20240368150A1.
